Source: paper PMC10762035

- study-target: hTA1 C13S (Homo sapiens, UniProt Q96RJ0, C13S)
- Construct: expressed in transfected cells; host or cells: HEK293T
- Sequence (Q96RJ0 whole entry C13S): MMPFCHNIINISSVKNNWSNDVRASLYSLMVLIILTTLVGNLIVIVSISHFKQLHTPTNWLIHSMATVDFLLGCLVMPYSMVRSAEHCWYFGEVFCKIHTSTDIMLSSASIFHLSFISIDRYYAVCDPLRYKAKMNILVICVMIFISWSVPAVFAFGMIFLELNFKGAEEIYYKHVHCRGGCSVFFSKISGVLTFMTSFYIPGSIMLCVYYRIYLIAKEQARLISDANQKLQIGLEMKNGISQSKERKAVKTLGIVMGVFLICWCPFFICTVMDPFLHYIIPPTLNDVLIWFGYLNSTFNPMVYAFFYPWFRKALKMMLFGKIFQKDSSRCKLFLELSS
- assay-name: GloSensor cAMP accumulation assay, C13S mutant
- Format: cell-based
- test-settings: C13S; Mean of fit per experiment
The reader will find reported Emax values values listed item by item below.
quantity-kind: Emax values

| compound | study-target | quantity-kind | val |
| --- | --- | --- | --- |
| CCC(CC1COC(N)=N1)c1ccccc1 (stereo not shown) | hTA1 C13S (Homo sapiens, UniProt Q96RJ0, C13S) | Emax values | 104.119 |
| NCCc1ccc(O)cc1 | hTA1 C13S (Homo sapiens, UniProt Q96RJ0, C13S) | Emax values | 110.911 |
| CCc1[nH]nc(C(=O)Nc2ccc([C@H]3CNCCO3)cc2)c1C | hTA1 C13S (Homo sapiens, UniProt Q96RJ0, C13S) | Emax values | 28.9629 |
| NCCc1ccccc1 | hTA1 C13S (Homo sapiens, UniProt Q96RJ0, C13S) | Emax values | 100 |
